Each recorded value in this set is attributed to paper PMC11187071.

# percent of parent annotations
# assay_target: IgG150-18 (scFv150-18 cloned into human IgG format)
# Sequence (chain, as listed by the source, chain 1 of 2): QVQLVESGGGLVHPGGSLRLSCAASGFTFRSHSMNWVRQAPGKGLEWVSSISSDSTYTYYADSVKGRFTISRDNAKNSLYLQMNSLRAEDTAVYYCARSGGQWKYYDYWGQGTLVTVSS
# Sequence (chain, as listed by the source, chain 2 of 2): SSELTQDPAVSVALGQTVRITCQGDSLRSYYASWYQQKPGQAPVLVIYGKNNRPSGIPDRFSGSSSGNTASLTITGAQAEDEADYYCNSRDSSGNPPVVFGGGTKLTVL
# measurement_description: FACS binding assay
# conditions_used: chain shown with the change; 10nM antibody; parent: est. 75; read off a plot
endpoint_name: percent of parent

INSERT INTO results (binder, endpoint_name, result) VALUES
  ('WT GPRC5D expressed on HEK293T cells, Q9NZD1 S8A (protein) MYKDCIEATGDYFLLCDAEGPWGIILESLAILGIVVTILLLLAFLFLMRKIQDCSQWNVLPTQLLFLLSVLGLFGLAFAFIIELNQQTAPVRYFLFGVLFALCFSCLLAHASNLVKLVRGCVSFSWTTILCIAIGCSLLQIIIATEYVTLIMTRGMMFVNMTPCQLNVDFVVLLVYVLFLMALTFFVSKATFCGPCENWKQHGRLIFITVLFSIIIWVVWISMLLRGNPQFQRQPQWDDPVVCIALVTNAWVFLLLYIVPELCILYRSCRQECPLQGNACPVTAYQHSFQVENQELSRARDSDGAEEDVALTSYGTPIQPQTVDPTQECFIPQAKLSPQQDAGGV', 'percent of parent', '65 % of WT'),
  ('WT GPRC5D expressed on HEK293T cells, Q9NZD1 L15A (protein) MYKDCIESTGDYFLACDAEGPWGIILESLAILGIVVTILLLLAFLFLMRKIQDCSQWNVLPTQLLFLLSVLGLFGLAFAFIIELNQQTAPVRYFLFGVLFALCFSCLLAHASNLVKLVRGCVSFSWTTILCIAIGCSLLQIIIATEYVTLIMTRGMMFVNMTPCQLNVDFVVLLVYVLFLMALTFFVSKATFCGPCENWKQHGRLIFITVLFSIIIWVVWISMLLRGNPQFQRQPQWDDPVVCIALVTNAWVFLLLYIVPELCILYRSCRQECPLQGNACPVTAYQHSFQVENQELSRARDSDGAEEDVALTSYGTPIQPQTVDPTQECFIPQAKLSPQQDAGGV', 'percent of parent', '38 % of WT'),
  ('WT GPRC5D expressed on HEK293T cells, Q9NZD1 T9A (protein) MYKDCIESAGDYFLLCDAEGPWGIILESLAILGIVVTILLLLAFLFLMRKIQDCSQWNVLPTQLLFLLSVLGLFGLAFAFIIELNQQTAPVRYFLFGVLFALCFSCLLAHASNLVKLVRGCVSFSWTTILCIAIGCSLLQIIIATEYVTLIMTRGMMFVNMTPCQLNVDFVVLLVYVLFLMALTFFVSKATFCGPCENWKQHGRLIFITVLFSIIIWVVWISMLLRGNPQFQRQPQWDDPVVCIALVTNAWVFLLLYIVPELCILYRSCRQECPLQGNACPVTAYQHSFQVENQELSRARDSDGAEEDVALTSYGTPIQPQTVDPTQECFIPQAKLSPQQDAGGV', 'percent of parent', '82 % of WT'),
  ('WT GPRC5D expressed on HEK293T cells, Q9NZD1 C16A (protein) MYKDCIESTGDYFLLADAEGPWGIILESLAILGIVVTILLLLAFLFLMRKIQDCSQWNVLPTQLLFLLSVLGLFGLAFAFIIELNQQTAPVRYFLFGVLFALCFSCLLAHASNLVKLVRGCVSFSWTTILCIAIGCSLLQIIIATEYVTLIMTRGMMFVNMTPCQLNVDFVVLLVYVLFLMALTFFVSKATFCGPCENWKQHGRLIFITVLFSIIIWVVWISMLLRGNPQFQRQPQWDDPVVCIALVTNAWVFLLLYIVPELCILYRSCRQECPLQGNACPVTAYQHSFQVENQELSRARDSDGAEEDVALTSYGTPIQPQTVDPTQECFIPQAKLSPQQDAGGV', 'percent of parent', '1 % of WT'),
  ('WT GPRC5D expressed on HEK293T cells, Q9NZD1 E83A (protein) MYKDCIESTGDYFLLCDAEGPWGIILESLAILGIVVTILLLLAFLFLMRKIQDCSQWNVLPTQLLFLLSVLGLFGLAFAFIIALNQQTAPVRYFLFGVLFALCFSCLLAHASNLVKLVRGCVSFSWTTILCIAIGCSLLQIIIATEYVTLIMTRGMMFVNMTPCQLNVDFVVLLVYVLFLMALTFFVSKATFCGPCENWKQHGRLIFITVLFSIIIWVVWISMLLRGNPQFQRQPQWDDPVVCIALVTNAWVFLLLYIVPELCILYRSCRQECPLQGNACPVTAYQHSFQVENQELSRARDSDGAEEDVALTSYGTPIQPQTVDPTQECFIPQAKLSPQQDAGGV', 'percent of parent', '72 % of WT'),
  ('WT GPRC5D expressed on HEK293T cells, Q9NZD1 P235A (protein) MYKDCIESTGDYFLLCDAEGPWGIILESLAILGIVVTILLLLAFLFLMRKIQDCSQWNVLPTQLLFLLSVLGLFGLAFAFIIELNQQTAPVRYFLFGVLFALCFSCLLAHASNLVKLVRGCVSFSWTTILCIAIGCSLLQIIIATEYVTLIMTRGMMFVNMTPCQLNVDFVVLLVYVLFLMALTFFVSKATFCGPCENWKQHGRLIFITVLFSIIIWVVWISMLLRGNPQFQRQAQWDDPVVCIALVTNAWVFLLLYIVPELCILYRSCRQECPLQGNACPVTAYQHSFQVENQELSRARDSDGAEEDVALTSYGTPIQPQTVDPTQECFIPQAKLSPQQDAGGV', 'percent of parent', '43 % of WT'),
  ('WT GPRC5D expressed on HEK293T cells, Q9NZD1 Q236A (protein) MYKDCIESTGDYFLLCDAEGPWGIILESLAILGIVVTILLLLAFLFLMRKIQDCSQWNVLPTQLLFLLSVLGLFGLAFAFIIELNQQTAPVRYFLFGVLFALCFSCLLAHASNLVKLVRGCVSFSWTTILCIAIGCSLLQIIIATEYVTLIMTRGMMFVNMTPCQLNVDFVVLLVYVLFLMALTFFVSKATFCGPCENWKQHGRLIFITVLFSIIIWVVWISMLLRGNPQFQRQPAWDDPVVCIALVTNAWVFLLLYIVPELCILYRSCRQECPLQGNACPVTAYQHSFQVENQELSRARDSDGAEEDVALTSYGTPIQPQTVDPTQECFIPQAKLSPQQDAGGV', 'percent of parent', '53 % of WT'),
  ('WT GPRC5D expressed on HEK293T cells, Q9NZD1 S8G; D11G; L15G; C16G; D17G; E83G; L84G; R154G; V159G; N160G; T162G; P163G; L166G; P235G; Q236G (protein) MYKDCIEGTGGYFLGGGAEGPWGIILESLAILGIVVTILLLLAFLFLMRKIQDCSQWNVLPTQLLFLLSVLGLFGLAFAFIIGGNQQTAPVRYFLFGVLFALCFSCLLAHASNLVKLVRGCVSFSWTTILCIAIGCSLLQIIIATEYVTLIMTGGMMFGGMGGCQGNVDFVVLLVYVLFLMALTFFVSKATFCGPCENWKQHGRLIFITVLFSIIIWVVWISMLLRGNPQFQRQGGWDDPVVCIALVTNAWVFLLLYIVPELCILYRSCRQECPLQGNACPVTAYQHSFQVENQELSRARDSDGAEEDVALTSYGTPIQPQTVDPTQECFIPQAKLSPQQDAGGV', 'percent of parent', '1 % of WT');
